- SYSTEM NAME: human serum albumin (HSA) (human)
- PROTOCOL DETAILS: SPR Biacore T200, fusion protein captured by anti-VHH antibody, albumin as analyte
MEASURED PROPERTY: Kd (nM)
Numbers only here, please. The scale is nM.

Query :: Requested read-out: Kd. Entry: 0065 (other, Single-chain fusion: anti-HSA VHH, linker, relaxin-2 B chain, linker, relaxin-2 A chain; also called fusion protein 0065) EVQLLESGGGLVQPGGSLRLSCAASGFTFLTSCMGWFRQAPGKEREGVSSIYTVGGSTFYTNSVKGRFTISRDNSKNTLYLQMNSLRPEDTAVYYCAAGSPARCRLRDPTTFDYWGQGTLVTVSSGGGGQGGGGQGGGGQGGGGQGGGGQSWMEEVIKLCGRELVRAQIAICGMSTWSGGGSGGSGGGQLYSALANKCCHVGCTKRSLARFC
Result :: 9.68

Query :: Requested read-out: Kd. Entry: 0051 (other, Single-chain fusion: anti-HSA VHH, linker, relaxin-2 B chain, linker, relaxin-2 A chain; also called fusion protein 0051; molecule 0051) EVQLLESGGGLVQPGGSLRLSCAASGFTFLTSCMGWFRQAPGKEREGVSSIYTVGGSTFYTNSVKGRFTISRDNSKNTLYLQMNSLRAEDTAVYYCAAGSPARCRLRDPTTFDYWGQGTLVTVSSGGGGQGGGGQGGGGQGGGGQGGGGQSWMEEVIKLCGRELVRAQIAICGMSTWSGGGSGGSGGGQLYSALANKCCHVGCTKRSLARFC
Result :: 20.2

Query :: Requested read-out: Kd. Entry: 0064 (other, Single-chain fusion: anti-HSA VHH, linker, relaxin-2 B chain, linker, relaxin-2 A chain; also called fusion protein 0064) EVQLLESGGGLVQPGGSLRLSCAASGNTYLTSCMGWFRQAPGKEREGVSSIYTVGGSTFYTNSVKGRFTISRDNSKNTLYLQMNSLQPEDTAVYYCAAGSPARCRLRDPTTFDYWGQGTLVTVSSGGGGQGGGGQGGGGQGGGGQGGGGQSWMEEVIKLCGRELVRAQIAICGMSTWSGGGSGGSGGGQLYSALANKCCHVGCTKRSLARFC
Result :: 5.59

Query :: Requested read-out: Kd. Entry: 0052 (other, Single-chain fusion: anti-HSA VHH, linker, relaxin-2 B chain, linker, relaxin-2 A chain; also called fusion protein 0052) EVQLLESGGGLVQPGGSLRLSCAASGFTFLTSCMGWFRQAPGKEREGVSSIYTVGGSTFYTNSVKGRFTISRDNSKNTLYLQMNSLRAEDTAVYYCAAGSPARCRLRDPTTFDYWGQGTLVTVSSPGPAPGPAPGPAPGPAPGPAPGPAPGPAPGPASWMEEVIKLCGRELVRAQIAICGMSTWSGGGSGGSGGGQLYSALANKCCHVGCTKRSLARFC
Result :: 9.65
